Attribution: patent US11497751B2

pIC50: −log10 of the molar value.
These molecules were tested on N-terminal 6His-tagged ROCK2 catalytic domain 11-552 (Homo sapiens); pIC50 is the recorded read-out.

Hi team, please reply with pIC50 for each item in this list.
1. COc1cc(-c2nc(Nc3ccc4[nH]ncc4c3Cl)n(-c3ccccn3)n2)ccc1OCC(=O)NC(C)C
2. COCCn1cc(-c2nc(Nc3ccc4[nH]ncc4c3Cl)n(C)n2)cn1

Marked response:
["< 5.00", "> 6.52"]

Please state, for each entry, its recorded pIC50.
1. COc1cc(-c2nc(Nc3cnc4[nH]ncc4c3)n(C)n2)ccc1OCC(=O)NC(C)C
2. O=C(COc1ccc(-c2nnc(Nc3ccc4[nH]ncc4c3)[nH]2)cc1)NC1CCOC1 (stereo not shown)

Marked response:
1. 5.52 to 6.52
2. 5.52 to 6.52

* * *

pIC50: −log10 of the molar value.
// values below are pIC50; system is N-terminal 6His-tagged ROCK2 catalytic domain 11-552 (Homo sapiens)

Below, 8 compounds whose answers are already recorded.
# compound, assayed_system, pIC50
rows = [
    ("CC(C)C[C@@H](CO)NC(=O)c1ccc(-c2nc(Nc3ccc4[nH]ncc4c3C3CC3)n(C)n2)cc1 [Example 309]", "N-terminal 6His-tagged ROCK2 catalytic domain 11-552 (Homo sapiens)", "> 6.52"),
    ("COC(=O)c1ccc(-c2nc(Nc3ccc4[nH]ncc4c3Cl)n(C)n2)cc1OC [Example 118]", "N-terminal 6His-tagged ROCK2 catalytic domain 11-552 (Homo sapiens)", "> 6.52"),
    ("COc1cc(-c2nc(Nc3ccc4[nH]ncc4c3C)n(C)n2)ccc1C(=O)NC1CC1 [Example 182]", "N-terminal 6His-tagged ROCK2 catalytic domain 11-552 (Homo sapiens)", "> 6.52"),
    ("Cn1nc(-c2ccc(C(=O)N3CCOCC3)cc2)nc1Nc1ccc2[nH]ncc2c1Cl [Example 61]", "N-terminal 6His-tagged ROCK2 catalytic domain 11-552 (Homo sapiens)", "5.52 to 6.52"),
    ("CC(C)NC(=O)COc1c(F)cc(-c2nnc(Nc3ccc4[nH]ncc4c3)[nH]2)cc1F [Example 36]", "N-terminal 6His-tagged ROCK2 catalytic domain 11-552 (Homo sapiens)", "5.52 to 6.52"),
    ("CC(C)NC(=O)c1ccc(-c2nc(Nc3ccc4[nH]ncc4c3C3CC3)n(C)n2)cc1 [Example 295]", "N-terminal 6His-tagged ROCK2 catalytic domain 11-552 (Homo sapiens)", "> 6.52"),
    ("Cn1nc(-c2ccc(C(=O)NCC3CCCO3)cc2)nc1Nc1ccc2[nH]ncc2c1Cl (stereo not shown) [Example 106]", "N-terminal 6His-tagged ROCK2 catalytic domain 11-552 (Homo sapiens)", "> 6.52"),
    ("CC(C)NC(=O)COc1cccc(-c2nnc(Nc3ccc4[nH]ncc4c3)[nH]2)c1 [Example 6]", "N-terminal 6His-tagged ROCK2 catalytic domain 11-552 (Homo sapiens)", "> 6.52"),
]

Answer for every listed entry: what is its pIC50? The entries follow.
1. CCNC(=O)c1ccc(-c2nc(Nc3ccc4[nH]ncc4c3Cl)n(C)n2)cc1 [Example 253]
2. Cn1nc(-c2ccc(S(=O)(=O)N3CCOCC3)cc2)nc1Nc1ccc2[nH]ncc2c1Cl [Example 78]
3. CCc1c(Nc2nc(-c3ccc(C(=O)NC(C)C(F)(F)F)cc3)nn2C)ccc2[nH]ncc12 (stereo not shown) [Example 322]
4. COCCn1nc(-c2ccc(C(=O)NCC(F)(F)F)cc2)nc1Nc1ccc2[nH]ncc2c1C [Example 453]
5. COc1cc(-c2nc(Nc3ccc4[nH]ncc4c3Cl)n(C)n2)ccc1OCC(=O)NC(C)(C)CO [Example 205]
6. CC(C)NC(=O)COc1ccc(-c2nc(Nc3ccc4[nH]ncc4c3)n(C)n2)c(F)c1F [Example 411]

Marked response:
1. > 6.52
2. 5.00 to 5.52
3. > 6.52
4. > 6.52
5. > 6.52
6. > 6.52

* * *

Below are IC50 values recorded for N-terminal 6His-tagged ROCK2 catalytic domain 11-552 (Homo sapiens).

Worked cases, answers included:
# compound, assayed_system, test_result
records = [
    ("Cn1nc(-c2ccc(C(=O)NCC(F)(F)F)cc2)nc1Nc1ccc2[nH]nc(F)c2c1", "N-terminal 6His-tagged ROCK2 catalytic domain 11-552 (Homo sapiens)", "< 300 nM"),
    ("CCc1c(Nc2nc(-c3ccc(C(=O)NCC(C)C)cc3)nn2C)ccc2[nH]ncc12", "N-terminal 6His-tagged ROCK2 catalytic domain 11-552 (Homo sapiens)", "< 300 nM"),
    ("CNC(=O)c1cccc(-c2nc(Nc3ccc4[nH]ncc4c3Cl)n(C)n2)c1", "N-terminal 6His-tagged ROCK2 catalytic domain 11-552 (Homo sapiens)", "< 300 nM"),
    ("CCNC(=O)c1ccc(-c2nc(Nc3ccc4[nH]ncc4c3C3CC3)n(C)n2)cc1OC", "N-terminal 6His-tagged ROCK2 catalytic domain 11-552 (Homo sapiens)", "< 300 nM"),
    ("Cn1nc(-c2ccc(C(=O)NC3(C)CC3)cc2)nc1Nc1ccc2[nH]ncc2c1C1CC1", "N-terminal 6His-tagged ROCK2 catalytic domain 11-552 (Homo sapiens)", "< 300 nM"),
]

State recorded IC50 for all listed compounds.
1. COc1cc(-c2nc(Nc3ccc4[nH]nc(Cl)c4c3)n(C)n2)ccc1C(=O)NCC(F)(F)F
2. COc1cc(-c2nc(Nc3ccc4[nH]ncc4c3Cl)n(C(C)C)n2)ccc1C(=O)NCC(F)(F)F
3. COc1ccc(-c2nc(Nc3ccc4[nH]ncc4c3Cl)n(C)n2)cc1Cl

Marked response:
1: < 300 nM; 2: < 300 nM; 3: < 300 nM

* * *

# assayed_system: N-terminal 6His-tagged ROCK2 catalytic domain 11-552 (Homo sapiens, UniProt O75116)
# Sequence (O75116 11-552): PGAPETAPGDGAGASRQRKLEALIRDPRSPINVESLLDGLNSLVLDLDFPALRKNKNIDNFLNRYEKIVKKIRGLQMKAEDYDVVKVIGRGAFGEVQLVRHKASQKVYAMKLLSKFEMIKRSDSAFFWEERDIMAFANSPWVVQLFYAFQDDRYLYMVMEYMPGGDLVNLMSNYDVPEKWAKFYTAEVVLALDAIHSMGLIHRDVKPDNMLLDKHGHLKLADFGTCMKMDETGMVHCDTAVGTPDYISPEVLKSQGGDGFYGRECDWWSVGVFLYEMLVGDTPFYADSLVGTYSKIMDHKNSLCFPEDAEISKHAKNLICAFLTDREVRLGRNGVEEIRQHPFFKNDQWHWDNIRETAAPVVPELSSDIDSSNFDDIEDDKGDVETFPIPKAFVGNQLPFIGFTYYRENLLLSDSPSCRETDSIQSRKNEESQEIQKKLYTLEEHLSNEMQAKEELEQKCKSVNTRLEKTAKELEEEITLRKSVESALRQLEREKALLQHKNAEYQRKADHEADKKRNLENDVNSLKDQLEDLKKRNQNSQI
pIC50: −log10 of the molar value.
So I've got a bunch of molecules here, and I need their pIC50 values.

Please review the entries below; each comes with its answer.
# smiles_string, test_result
records = [
    ("Cn1nc(C2=CCCNC2)nc1Nc1ccc2[nH]ncc2c1Cl", "5.00 to 5.52"),
    ("COc1cc(-c2nc(Nc3ccc4[nH]ncc4c3Cl)n(C)n2)ccc1OCC(=O)NCC1(O)CC1", "> 6.52"),
    ("Cc1cc(-c2nc(Nc3ccc4[nH]ncc4c3Cl)n(C)n2)ccc1OCC(=O)NC(C)C", "> 6.52"),
]

Okay, now this molecule:
Exam item: Given the molecule Cn1nc(-c2ccc(C(=O)NC3(C(F)(F)F)CC3)cc2)nc1Nc1ccc2[nH]ncc2c1C1CC1 , write its reported pIC50.
Marked response: > 6.52

* * *

# assayed_system: N-terminal 6His-tagged ROCK2 catalytic domain 11-552 (Homo sapiens, UniProt O75116)
Would you kindly list IC50 for each of these compounds?

# compound, test_result
records = [
    ("COc1cc(-c2nc(Nc3ccc4[nH]nc(C)c4c3)n(C)n2)ccc1OCC(=O)NC(C)C [Example 233]", "< 300 nM"),
]

Provide IC50 values for the following items, in order.
1. CCNC(=O)c1ccc(-c2nc(Nc3ccc4[nH]ncc4c3C3CC3)n(C)n2)cc1F [Example 387]
2. CCNC(c1ccc(-c2nc(Nc3ccc4[nH]ncc4c3C3CC3)n(C)n2)cc1)C(F)(F)F (stereo not shown) [Example 386]

Marked response:
1: < 300 nM; 2: 300 to 3000 nM

Exam item: Supply recorded IC50 for Cc1cc(-c2nc(Nc3ccc4[nH]ncc4c3)n(C)n2)ccc1OCC(=O)NC(C)C [Example 396] here.
Marked response: < 300 nM

* * *

List of pIC50 tested on N-terminal 6His-tagged ROCK2 catalytic domain 11-552 (Homo sapiens).
pIC50: −log10 of the molar value.

# compound, assayed_system, test_result
rows = [
    ("COc1cc(-c2nc(Nc3ccc4[nH]ncc4c3)n(C)n2)ccc1C(=O)NC(C)(C)C", "N-terminal 6His-tagged ROCK2 catalytic domain 11-552 (Homo sapiens)", "> 6.52"),
    ("COc1cc(-c2nc(Nc3ccc4[nH]ncc4c3C3CC3)n(C)n2)ccc1C(=O)NC1CCN(CC(F)(F)F)C1 (centres unmarked)", "N-terminal 6His-tagged ROCK2 catalytic domain 11-552 (Homo sapiens)", "> 6.52"),
    ("COc1cc(-c2nc(Nc3ccc4[nH]ncc4c3Cl)n(C)n2)ccc1OCC(=O)N[C@@H]1CCCC[C@H]1O", "N-terminal 6His-tagged ROCK2 catalytic domain 11-552 (Homo sapiens)", "> 6.52"),
    ("Cn1nc(-c2cccc(CNS(C)(=O)=O)c2)nc1Nc1ccc2[nH]ncc2c1Cl", "N-terminal 6His-tagged ROCK2 catalytic domain 11-552 (Homo sapiens)", "> 6.52"),
    ("COc1cc(-c2nc(Nc3cnc4[nH]ncc4c3)n(C)n2)ccc1C(=O)NC1CC1", "N-terminal 6His-tagged ROCK2 catalytic domain 11-552 (Homo sapiens)", "5.00 to 5.52"),
    ("CC(C)NC(=O)COc1ccc(-c2nc(Nc3ccc4[nH]ncc4c3Cl)n(C)n2)cc1F", "N-terminal 6His-tagged ROCK2 catalytic domain 11-552 (Homo sapiens)", "> 6.52"),
    ("Cn1nc(-c2ccc(C(=O)NCC(C)(F)F)cc2)nc1Nc1ccc2[nH]ncc2c1C1CC1", "N-terminal 6His-tagged ROCK2 catalytic domain 11-552 (Homo sapiens)", "> 6.52"),
    ("O=C(O)COc1ccc(-c2nnc(Nc3ccc4[nH]ncc4c3)[nH]2)cc1", "N-terminal 6His-tagged ROCK2 catalytic domain 11-552 (Homo sapiens)", "5.52 to 6.52"),
    ("Cn1nc(-c2ccc(C(=O)NC3CC3)cc2)nc1Nc1ccc2[nH]ncc2c1Cl", "N-terminal 6His-tagged ROCK2 catalytic domain 11-552 (Homo sapiens)", "> 6.52"),
    ("Cn1nc(-c2ccc3c(c2)OCCC3=O)nc1Nc1ccc2[nH]ncc2c1Cl", "N-terminal 6His-tagged ROCK2 catalytic domain 11-552 (Homo sapiens)", "> 6.52"),
]

Each compound below has a reported value. Please supply its pIC50.
1. CC(C)NC(=O)COc1ccc(-c2nnc(Nc3ccc4[nH]ncc4c3)[nH]2)cc1C#N
2. CC(C)NC(=O)COc1cc(F)c(-c2nc(Nc3ccc4[nH]ncc4c3Cl)n(C)n2)cc1F
3. CC(C)NC(=O)COc1c(F)cc(-c2nc(Nc3ccc4[nH]ncc4c3)n(C)n2)cc1F
4. CC(C)NC(=O)COc1ccc(-c2nc(Nc3ccc4[nH]ncc4c3Cl)n(C)n2)c(Cl)c1
5. COc1cc(-c2nc(Nc3ccc4[nH]ncc4c3Cl)n(C)n2)ccc1OCC(=O)NCC(C)(C)O
6. COc1cc(OC)cc(-c2nnc(Nc3ccc4[nH]ncc4c3)[nH]2)c1
7. COc1cc(-c2nc(Nc3ccc4[nH]ncc4c3Cl)n(C)n2)ccc1OCC(=O)NC1CCC(O)CC1 (centres unmarked)

Marked response:
1: > 6.52; 2: > 6.52; 3: > 6.52; 4: > 6.52; 5: > 6.52; 6: 5.52 to 6.52; 7: > 6.52

For each of the items listed, what is its pIC50?
1. CC(C)NC(=O)COc1ccc(-c2nnc(Nc3ccc4[nH]ncc4c3)[nH]2)cc1
2. CC(C)NC(=O)COc1ccc(-c2nc(Nc3ccc4[nH]ncc4c3)n(-c3ccccc3F)n2)cc1
3. COc1cc(-c2nc(Nc3ccc4[nH]ncc4c3Cl)n(C(C)C)n2)ccc1OCC(=O)NC(C)C
4. CNC(=O)Cc1ccc(-c2nc(Nc3ccc4[nH]ncc4c3Cl)n(C)n2)cc1OC
5. COc1cc(-c2nc(Nc3ccc4[nH]ncc4c3C3CC3)n(C)n2)cnc1C(=O)NC1CC1
6. CCC(C)NC(=O)c1ccc(-c2nc(Nc3ccc4[nH]ncc4c3C3CC3)n(C)n2)cc1 (centres unmarked)
7. CC(C)NC(=O)CN1CCOc2cc(-c3nc(Nc4ccc5[nH]ncc5c4Cl)n(C)n3)ccc21
8. Cc1ccc(-c2nc(Nc3ccc4[nH]ncc4c3Cl)n(C)n2)cn1

Marked response:
1: > 6.52; 2: > 6.52; 3: > 6.52; 4: 5.52 to 6.52; 5: 5.52 to 6.52; 6: > 6.52; 7: > 6.52; 8: 5.00 to 5.52

Below is a list of compounds. For each, state its recorded pIC50.
1. c1ccc(COc2ccc(-c3nnc(Nc4ccc5[nH]ncc5c4)[nH]3)cc2)cc1
2. Cn1nc(-c2ccc(C(=O)NCC(F)(F)F)cc2)nc1Nc1ccc2[nH]ncc2c1C1CC1
3. CCNC(=O)c1ccc(-c2nc(Nc3ccc4[nH]ncc4c3C3CC3)n(C)n2)c(OC)c1
4. COc1cc(-c2nc(Nc3cnc4[nH]ncc4c3)n(C)n2)ccc1C(=O)NC(C)C
5. Cn1nc(C2=CCOCC2)nc1Nc1ccc2[nH]ncc2c1Cl

Marked response:
["5.52 to 6.52", "> 6.52", "> 6.52", "5.52 to 6.52", "< 5.00"]

# return pIC50 for each item in the list
1. Cn1nc(-c2ccc(C(=O)N3CCNC(C(F)(F)F)C3)cc2)nc1Nc1ccc2[nH]ncc2c1C1CC1 (centres unmarked)
2. COc1cc(-c2nc(Nc3ccc4[nH]ncc4c3C)n(C)n2)cnc1C(=O)NC1CC1

Marked response:
["5.52 to 6.52", "5.52 to 6.52"]
